# Target Under Test: Beta-secretase 1 (Homo sapiens)
# Sequence (P56817 whole entry): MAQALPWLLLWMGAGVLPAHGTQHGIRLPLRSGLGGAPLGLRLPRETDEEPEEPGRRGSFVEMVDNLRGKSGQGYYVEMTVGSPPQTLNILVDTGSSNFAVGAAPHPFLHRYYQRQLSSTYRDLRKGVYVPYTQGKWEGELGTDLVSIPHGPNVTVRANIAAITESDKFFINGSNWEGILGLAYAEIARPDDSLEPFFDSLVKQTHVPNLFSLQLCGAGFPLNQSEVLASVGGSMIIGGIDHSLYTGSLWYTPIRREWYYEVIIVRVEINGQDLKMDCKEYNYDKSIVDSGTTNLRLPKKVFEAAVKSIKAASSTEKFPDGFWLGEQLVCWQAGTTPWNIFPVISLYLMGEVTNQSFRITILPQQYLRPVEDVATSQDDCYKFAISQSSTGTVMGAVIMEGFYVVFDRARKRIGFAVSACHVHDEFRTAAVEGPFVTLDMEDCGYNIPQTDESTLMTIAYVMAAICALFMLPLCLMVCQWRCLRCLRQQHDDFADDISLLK
# Assay Protocol: Inhibition of BACE1 in human HEK293 cells expressing swedish mutant APP
# Type: cell-based
Property Name: IC50 (nM)

Use the examples below as a reference point.
INSERT INTO measurements (compound, target_under_test, numeric_readout) VALUES
  ('CCC(C)[C@@]1(NC(C)=O)CCN([C@@H](CCc2ccccc2)C(=O)N[C@@H](Cc2cc(F)cc(F)c2)[C@H](O)[C@H]2C[C@@H](OCc3ccc(F)cc3)CN2)C1=O (stereo partly specified)', 'Beta-secretase 1 (Homo sapiens)', 8.9),
  ('CCC(C)[C@@]1(NC(C)=O)CCN([C@@H](CCc2ccccc2)C(=O)N[C@@H](Cc2cc(F)cc(F)c2)[C@H](O)[C@H]2C[C@@H](OCc3cccnc3)CN2)C1=O (stereo partly specified)', 'Beta-secretase 1 (Homo sapiens)', 2),
  ('CCCO[C@H]1CN[C@@H]([C@@H](O)[C@H](Cc2cc(F)cc(F)c2)NC(=O)[C@H](C)N2CC[C@H]([C@H](O)CCC)C2=O)C1', 'Beta-secretase 1 (Homo sapiens)', 55),
  ('CCCC[C@H]1CCN([C@@H](CCc2ccccc2)C(=O)N[C@@H](Cc2cc(F)cc(F)c2)[C@H](O)[C@H]2C[C@H](O)CN2)C1=O', 'Beta-secretase 1 (Homo sapiens)', 720);

(I) COC[C@H]1CCN([C@@H](CCc2ccccc2)C(=O)N[C@@H](Cc2cc(F)cc(F)c2)[C@H](O)CNCc2cccc(OC)c2)C1=O
(II) CCCC[C@H]1CCN([C@@H](C)C(=O)N[C@@H](Cc2cc(F)cc(F)c2)[C@H](O)[C@H]2C[C@@H](OCCC)CN2)C1=O
Parameter metric = IC50. Return the lower-valued option from I and II . Give the label under which the chosen entry appears.
II
(II: 68 nM, I: 210 nM)

----------
# Assay Protocol: Ratio drug level in brain to plasma of CD-IGS rat at 30 mg/kg, ip measured after 5 hrs
# Type: ADME, organism-based
# Set-up: dose 30 mg/kg, route intraperitoneal
# Run Parameters: read-out: BPR
Property Name: Kp at 5 h

(P) CCCC[C@H]1CCN([C@@H](CCc2ccccc2)C(=O)N[C@@H](Cc2cc(F)cc(F)c2)[C@H](O)[C@H]2C[C@@H](OCCC)CN2)C1=O
(Q) CCCC[C@H]1CCN([C@@H](C)C(=O)N[C@@H](Cc2cc(F)cc(F)c2)[C@H](O)CNCc2cccc(OC)c2)C1=O
Given the listed records, identify the one among P and Q with higher Kp at 5 h. Give the label under which the chosen entry appears.
Q

----------
# Assay Protocol: Drug level in brain of transgenic 2576 mouse at 30 mg/kg, sc measured after 5 hrs
# Assay type: ADME, organism-based
# Parameters: dose 30 mg/kg, route subcutaneous
# Run Parameters: read-out: Drug uptake
Property Name: concentration at 5 h (nM)
Give the number; nM is assumed, so skip it.

Item CCC(C)[C@@]1(NC(C)=O)CCN([C@@H](CCc2ccccc2)C(=O)N[C@@H](Cc2cc(F)cc(F)c2)[C@H](O)[C@H]2C[C@H](O)CN2)C1=O (stereo partly specified) has what recorded concentration at 5 h?
680

----------
# Assay Protocol: Fraction unbound in plasma of transgenic 2576 mouse at 30 mg/kg, sc measured after 5 hrs
# Format: ADME, organism-based
# Parameters: dose 30 mg/kg, route subcutaneous
Property Name: fraction unbound at 5 h
Answer with the value's number alone.

Item CCC(C)[C@@]1(NC(C)=O)CCN([C@@H](CCc2ccccc2)C(=O)N[C@@H](Cc2cc(F)cc(F)c2)[C@H](O)[C@H]2C[C@H](O)CN2)C1=O (stereo partly specified) has what recorded fraction unbound at 5 h?
0.1
